Target: T1, G9a and GLP (Homo sapiens, UniProt Q96KQ7+Q9H9B1)
T1 sequence (Q96KQ7 2-1210 limits assumed): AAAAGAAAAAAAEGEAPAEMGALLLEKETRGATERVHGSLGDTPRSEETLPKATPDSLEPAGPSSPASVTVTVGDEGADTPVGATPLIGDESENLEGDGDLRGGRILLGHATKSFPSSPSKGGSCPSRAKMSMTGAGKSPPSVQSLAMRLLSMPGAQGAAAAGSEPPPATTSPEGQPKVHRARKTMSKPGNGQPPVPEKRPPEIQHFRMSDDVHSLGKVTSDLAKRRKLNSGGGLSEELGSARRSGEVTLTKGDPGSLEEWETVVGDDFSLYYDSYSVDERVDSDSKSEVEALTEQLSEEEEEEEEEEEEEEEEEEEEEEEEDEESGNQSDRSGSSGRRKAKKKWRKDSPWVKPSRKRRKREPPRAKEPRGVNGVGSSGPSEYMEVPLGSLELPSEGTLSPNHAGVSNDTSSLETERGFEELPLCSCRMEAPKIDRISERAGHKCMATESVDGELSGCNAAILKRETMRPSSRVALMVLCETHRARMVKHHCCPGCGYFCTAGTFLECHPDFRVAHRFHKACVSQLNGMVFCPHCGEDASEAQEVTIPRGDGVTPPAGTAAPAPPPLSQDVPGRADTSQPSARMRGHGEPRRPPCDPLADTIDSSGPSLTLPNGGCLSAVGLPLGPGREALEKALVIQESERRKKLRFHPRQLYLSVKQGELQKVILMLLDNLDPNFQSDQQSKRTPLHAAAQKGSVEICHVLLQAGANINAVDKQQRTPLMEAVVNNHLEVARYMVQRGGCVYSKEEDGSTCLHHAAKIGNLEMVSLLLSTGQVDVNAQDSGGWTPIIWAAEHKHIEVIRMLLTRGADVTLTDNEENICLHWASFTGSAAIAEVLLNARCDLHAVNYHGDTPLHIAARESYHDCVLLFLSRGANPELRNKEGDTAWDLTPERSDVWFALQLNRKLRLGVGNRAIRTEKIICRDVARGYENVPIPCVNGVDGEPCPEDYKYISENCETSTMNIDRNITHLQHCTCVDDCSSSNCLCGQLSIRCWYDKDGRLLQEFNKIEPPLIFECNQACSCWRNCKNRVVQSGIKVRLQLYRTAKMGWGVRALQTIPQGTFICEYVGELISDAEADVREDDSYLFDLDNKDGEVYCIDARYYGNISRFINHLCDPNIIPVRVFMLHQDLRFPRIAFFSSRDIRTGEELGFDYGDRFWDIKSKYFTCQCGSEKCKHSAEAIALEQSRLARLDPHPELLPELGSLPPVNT
T1 sequence (Q9H9B1 2-1298 limits assumed): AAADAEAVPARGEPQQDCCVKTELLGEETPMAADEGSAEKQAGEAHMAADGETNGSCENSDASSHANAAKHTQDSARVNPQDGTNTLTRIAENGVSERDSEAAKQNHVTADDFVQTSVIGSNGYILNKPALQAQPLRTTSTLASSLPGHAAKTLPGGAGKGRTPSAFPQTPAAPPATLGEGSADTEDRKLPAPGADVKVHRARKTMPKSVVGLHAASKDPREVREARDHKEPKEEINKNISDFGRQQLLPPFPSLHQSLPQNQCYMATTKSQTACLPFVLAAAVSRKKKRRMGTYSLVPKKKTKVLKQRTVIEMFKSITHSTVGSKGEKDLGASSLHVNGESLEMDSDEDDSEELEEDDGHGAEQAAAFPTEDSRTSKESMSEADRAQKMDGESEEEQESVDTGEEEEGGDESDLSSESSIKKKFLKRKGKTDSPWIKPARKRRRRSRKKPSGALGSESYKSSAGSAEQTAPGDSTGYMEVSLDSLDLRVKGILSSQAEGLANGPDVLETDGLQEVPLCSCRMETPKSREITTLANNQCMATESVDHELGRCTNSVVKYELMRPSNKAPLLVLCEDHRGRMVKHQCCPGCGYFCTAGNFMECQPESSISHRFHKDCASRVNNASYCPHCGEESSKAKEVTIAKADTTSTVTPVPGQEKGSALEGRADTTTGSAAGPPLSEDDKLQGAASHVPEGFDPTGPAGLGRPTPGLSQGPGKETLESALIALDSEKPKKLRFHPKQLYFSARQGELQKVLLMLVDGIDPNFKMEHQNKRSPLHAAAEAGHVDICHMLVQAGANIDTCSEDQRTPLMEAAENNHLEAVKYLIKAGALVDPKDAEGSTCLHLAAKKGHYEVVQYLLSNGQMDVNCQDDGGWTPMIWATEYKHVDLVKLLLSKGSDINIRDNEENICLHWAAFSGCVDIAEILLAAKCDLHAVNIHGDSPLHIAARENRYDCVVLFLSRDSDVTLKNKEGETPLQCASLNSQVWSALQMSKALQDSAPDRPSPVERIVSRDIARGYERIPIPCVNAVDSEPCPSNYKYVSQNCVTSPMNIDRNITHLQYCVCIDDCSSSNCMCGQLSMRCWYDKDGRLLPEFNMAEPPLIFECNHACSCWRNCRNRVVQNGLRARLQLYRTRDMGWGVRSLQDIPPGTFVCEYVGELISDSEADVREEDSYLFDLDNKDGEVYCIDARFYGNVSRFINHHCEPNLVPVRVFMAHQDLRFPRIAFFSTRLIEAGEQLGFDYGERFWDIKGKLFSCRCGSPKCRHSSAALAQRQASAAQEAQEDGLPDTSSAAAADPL
Experiment: Triple SILAC pull-down after UNC0638 treatment of 293T cells, DMSO/UNC0638 ratio of protein captured by 3×MBT;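 further: mass spectrometry (Q-Exactive) SILAC quantitation, DMSO/UNC0638 ratio computed after subtracting 3×MBTD355N mutant pull-down background, only proteins with at least twofold 3×MBT over mutant signal considered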
Assay type: cell-based
Parameters: endogenous in cells; host or cells: HEK 293T
Details: SILAC ratio DMSO/UNC0638 of protein pulled down with 3xMBT; UNC0638 in light SILAC media
The reader will find reported Relative to UNC0638 UNC Light values listed item by item below.
Value expressed in log base 2; do not type the unit.

Notebook: CNN3 (protein, UniProt Q15417 1-329, looked up) Calponin-3: MTHFNKGPSYGLSAEVKNKIASKYDHQAEEDLRNWIEEVTGMSIGPNFQLGLKDGIILCELINKLQPGSVKKVNESSLNWPQLENIGNFIKAIQAYGMKPHDIFEANDLFENGNMTQVQTTLVALAGLAKTKGFHTTIDIGVKYAEKQTRRFDEGKLKAGQSVIGLQMGTNKCASQAGMTAYGTRRHLYDPKMQTDKPFDQTTISLQMGTNKGASQAGMLAPGTRRDIYDQKLTLQPVDNSTISLQMGTNKVASQKGMSVYGLGRQVYDPKYCAAPTEPVIHNGSQGTGTNGSEISDSDYQAEYPDEYHGEYQDDYPRDYQYSDQGIDY , Relative to UNC0638 UNC Light read as −0.15

Notebook: HNRNPH3 (protein, UniProt P31942 1-346, looked up) Heterogeneous nuclear …: MDWVMKHNGPNDASDGTVRLRGLPFGCSKEEIVQFFQGLEIVPNGITLTMDYQGRSTGEAFVQFASKEIAENALGKHKERIGHRYIEIFRSSRSEIKGFYDPPRRLLGQRPGPYDRPIGGRGGYYGAGRGSMYDRMRRGGDGYDGGYGGFDDYGGYNNYGYGNDGFDDRMRDGRGMGGHGYGGAGDASSGFHGGHFVHMRGLPFRATENDIANFFSPLNPIRVHIDIGADGRATGEADVEFVTHEDAVAAMSKDKNNMQHRYIELFLNSTPGGGSGMGGSGMGGYGRDGMDNQGGYGSVGRMGMGNNYSGGYGTPDGLGGYGRGGGGSGGYYGQGGMSGGGWRGMY , Relative to UNC0638 UNC Light read as 0.39

Notebook: SRP19 (protein, UniProt P09132 1-144, looked up) Signal recognition particle …: MACAAARSPADQDRFICIYPAYLNNKKTIAEGRRIPISKAVENPTATEIQDVCSAVGLNVFLEKNKMYSREWNRDVQYRGRVRVQLKQEDGSLCLVQFPSRKSVMLYAAEMIPKLKTRTQKTGGADQSLQQGEGSKKGKGKKKK , Relative to UNC0638 UNC Light read as 0.38
